meta.source: patent US20040167131A1

Reported pIC50 is given for each of the following molecules.
target: human factor Xa (Homo sapiens, UniProt P00742); construct: purchased Enzyme Research Laboratories; assay: Determination of Factor Xa IC50 (cleavage of fluorogenic substrate F-S2765); type: biochemical; conditions: 3 pM human factor Xa; read-out: FXa 3 pM IC50
Sequence (P00742 235-488 limits assumed): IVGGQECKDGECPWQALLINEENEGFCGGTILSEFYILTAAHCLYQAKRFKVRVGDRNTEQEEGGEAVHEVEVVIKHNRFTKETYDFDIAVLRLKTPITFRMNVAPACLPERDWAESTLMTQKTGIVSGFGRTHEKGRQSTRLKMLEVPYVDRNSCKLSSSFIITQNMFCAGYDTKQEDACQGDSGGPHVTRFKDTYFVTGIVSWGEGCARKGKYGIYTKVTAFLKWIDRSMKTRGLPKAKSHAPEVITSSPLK
Sequence (P00742 41-179 partner limits assumed): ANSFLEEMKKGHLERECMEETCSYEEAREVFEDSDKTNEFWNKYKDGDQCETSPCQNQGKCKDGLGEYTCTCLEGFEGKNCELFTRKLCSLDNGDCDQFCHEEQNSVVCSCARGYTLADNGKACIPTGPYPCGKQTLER
The value called pIC50 is obtained by taking minus log10 of the concentration in mol/L.

Sample records with pIC50:
- SMILES_STR: "CS(=O)(=O)c1ccccc1-c1ccc(NC(=O)C2(NC(=O)Nc3ccc(Cl)cc3)CC2)cc1"
  pIC50: 7.48
- SMILES_STR: "CC(C)(NC(=O)Nc1ccc(Cl)cc1)C(=O)Nc1ccc(-c2ccccc2S(C)(=O)=O)cc1F"
  pIC50: 7.70
- SMILES_STR: "CS(=O)(=O)c1ccccc1-c1ccc(NC(=O)C2(NC(=O)Nc3ccc(Cl)cc3)CC2)c(F)c1"
  pIC50: 7.66
- SMILES_STR: "CS(=O)(=O)c1ccccc1-c1ccc(NC(=O)C2(NC(=O)Nc3ccc(Cl)cc3)CCCCC2)cc1"
  pIC50: 7.80

Let us move to another entry and its pIC50.
## Task Return reported pIC50. Input molecule: `CS(=O)(=O)c1ccccc1-c1ccc(NC(=O)C2(NC(=O)Nc3ccc(Cl)cc3)CCCC2)cc1`
## Result 7.42
